thermal shift delta Tm values by entry
# Tested on: LOC_OS01G63280-cb003
# assayMethodText: thermal shift delta Tm vs DMSO control; higher = stronger stabilization (binding);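 further: purified Escherichia coli-expressed rice kinase domain construct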
# conditionSet: 12.5 µM; protein concentration 2 µM
Write it as a number; the unit °C goes unstated.

Req: Need thermal shift delta Tm, item "N#Cc1ccc(-c2c(-c3ncn[nH]3)sc(N3CCOCC3)c2C#N)c(F)c1"
Resp: 0.44

Req: Need thermal shift delta Tm, item "Cn1cc(C2=C(c3ccc(Cl)cc3Cl)C(=O)NC2=O)c2ccccc21"
Resp: 15.7

Req: Need thermal shift delta Tm, item "CC(C)N(CCC(=O)c1ccc2ccccc2c1)Cc1ccccc1"
Resp: -2.65

Req: Need thermal shift delta Tm, item "Cc1ncc(-c2ccnc(Nc3ccc(S(C)(=O)=O)cc3)n2)n1C(C)C"
Resp: 4.42

Req: Need thermal shift delta Tm, item "Cc1cc2c(F)c(Oc3ncnn4cc(OC[C@@H](C)OC(=O)[C@H](C)N)c(C)c34)ccc2[nH]1"
Resp: 0.53

Req: Need thermal shift delta Tm, item CN(C)C/C=C/C(=O)Nc1cc2c(Nc3ccc(F)c(Cl)c3)ncnc2cc1O[C@H]1CCOC1 [Afatinib (BIBW2992) Dimaleate]
Resp: 1

Next:
Req: Need thermal shift delta Tm, item "CCn1c(-c2nonc2N)nc2c(C#CC(C)(C)O)ncc(OC[C@H]3CCCNC3)c21"
Resp: -0.01

Req: Need thermal shift delta Tm, item "Cn1cc(-c2ccc3nnc(C(F)(F)c4ccc5ncccc5c4)n3n2)cn1"
Resp: 0.31

Req: Need thermal shift delta Tm, item "Oc1c(F)cc(-c2cnccc2-c2ccc(N3CCOCC3)cc2)cc1F"
Resp: 0.58

Req: Need thermal shift delta Tm, item "Cc1ccc(C(=O)Nc2cccc(C(F)(F)F)c2)cc1Nc1nc(-c2cccnc2)nc2c1cnn2C"
Resp: 0.24

Req: Need thermal shift delta Tm, item CN1CCN(C2CCN(C(=O)Nc3cc(Oc4ccc(NC(=O)C5(C(=O)Nc6ccc(F)cc6)CC5)c(F)c4)ccn3)CC2)CC1 [Golvatinib (E7050)]
Resp: 0.78

Req: Need thermal shift delta Tm, item "CC(C)n1ncnc1-c1cn2c(n1)-c1ccc(O[C@@H](C)C(N)=O)cc1OCC2"
Resp: 0.36

Req: Need thermal shift delta Tm, item "N#Cc1cccc(-c2c[nH]c3ncnc(N4CCOCC4)c23)c1"
Resp: 4.38

Req: Need thermal shift delta Tm, item O=C(Nc1ccccc1C(=O)NC1CCCCNC1=O)c1cc2ccccc2s1 (stereo not drawn)
Resp: -0.03

###

# Test system: LOC_OS02G07810-cb001
# assayMethodText: thermal shift delta Tm vs DMSO control; higher = stronger stabilization (binding)
# conditionSet: 12.5 µM; protein concentration 2 µM
thermal shift delta Tm values by entry
Write it as a number; the unit °C goes unstated.

Take a look at these entries with their results.
Req: Need thermal shift delta Tm, item "COC(=O)[C@]12CCC(C)(C)C[C@H]1[C@H]1C(=O)C=C3[C@@]4(C)C=C(C#N)C(=O)C(C)(C)[C@@H]4CC[C@@]3(C)[C@]1(C)CC2"
Resp: 0.28

Req: Need thermal shift delta Tm, item "Cc1cc(Nc2cc(N3CCN(C)CC3)nc(/C=C/c3ccccc3)n2)n[nH]1"
Resp: 0.72

Req: Need thermal shift delta Tm, item "Cc1nc(N)sc1-c1ccnc(Nc2ccc(N3CCOCC3)cc2)n1"
Resp: 0.79

Req: Need thermal shift delta Tm, item "CC(C)c1cnn2c(NCc3ccccc3)cc(NCCCCCCN)nc12"
Resp: 0.44

Moving on to another molecule below.
Req: Need thermal shift delta Tm, item "O=c1cc(N2CCOCC2)oc2c(-c3ccccc3)cccc12"
Resp: 1.28

###

# System: LOC_OS01G63280-cb003
# assayMethodText: thermal shift delta Tm vs DMSO control; higher = stronger stabilization (binding)
# conditionSet: 12.5 µM; protein concentration 2 µM
thermal shift delta Tm values by entry
Write it as a number; the unit °C goes unstated.

Req: Lab note: need thermal shift delta Tm with LOC_OS01G63280-cb003 for entry O=C1NC(=O)C(=Cc2ccc(-c3ccc(F)cc3)o2)S1 (stereo in doubt) , please look it up.
Resp: 0.52

Moving on to another molecule below.
Req: Lab note: need thermal shift delta Tm with LOC_OS01G63280-cb003 for entry "CNCc1ccc(-c2cc(-c3nc(-c4ccc(S(=O)(=O)C(C)C)cc4)cnc3N)on2)cc1" , please look it up.
Resp: 0.5

###

# Tested on: LOC_OS01G52050-cb004
# Sequence (as listed by the source): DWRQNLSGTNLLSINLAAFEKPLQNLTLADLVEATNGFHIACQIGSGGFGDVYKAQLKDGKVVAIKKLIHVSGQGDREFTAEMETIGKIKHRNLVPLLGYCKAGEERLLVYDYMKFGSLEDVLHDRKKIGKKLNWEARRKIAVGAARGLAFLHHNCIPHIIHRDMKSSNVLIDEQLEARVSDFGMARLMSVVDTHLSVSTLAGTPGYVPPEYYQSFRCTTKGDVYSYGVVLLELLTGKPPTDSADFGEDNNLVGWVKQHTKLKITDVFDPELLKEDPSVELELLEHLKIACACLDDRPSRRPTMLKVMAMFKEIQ
# assayMethodText: thermal shift delta Tm vs DMSO control; higher = stronger stabilization (binding)
# conditionSet: 12.5 µM; protein concentration 2 µM
Kindly return t if reported thermal shift delta Tm is no lower than 0.7 °C; return f if it is lower.

Req: Identify whether the reported thermal shift delta Tm of the following compound is 0.7 °C or greater: "C[C@H](Nc1ncnc2nc[nH]c12)c1cc2cccc(Cl)c2c(=O)n1-c1ccccc1"
Resp: f

Req: Identify whether the reported thermal shift delta Tm of the following compound is 0.7 °C or greater: "Cc1[nH]nc2ccc(-c3cncc(OC[C@@H](N)Cc4ccccc4)c3)cc12"
Resp: t

Req: Identify whether the reported thermal shift delta Tm of the following compound is 0.7 °C or greater: "COc1cc2ncnc(Oc3ccc(CC(=O)Nc4cnn(C(C)C)c4)cc3)c2cc1OC"
Resp: f

Next:
Req: Identify whether the reported thermal shift delta Tm of the following compound is 0.7 °C or greater: "COc1cccc(-n2c(=O)[nH]c3cc(Cl)n(-c4ccc(-c5cccc(OC)c5O)cc4)c3c2=O)c1"
Resp: f

Req: Identify whether the reported thermal shift delta Tm of the following compound is 0.7 °C or greater: CCC[C@H](NC(=O)/C(C#N)=C/c1cccc(Br)n1)c1ccccc1 [Degrasyn (WP1130)]
Resp: f

###

# System: LOC_OS02G17970-cb001
# assayMethodText: thermal shift delta Tm vs DMSO control; higher = stronger stabilization (binding)
# conditionSet: 12.5 µM; protein concentration 2 µM
endpointLabel: thermal shift delta Tm (°C)
Write it as a number; the unit °C goes unstated.

Req: Need thermal shift delta Tm, item CN1CCN(C2CCN(C(=O)Nc3cc(Oc4ccc(NC(=O)C5(C(=O)Nc6ccc(F)cc6)CC5)c(F)c4)ccn3)CC2)CC1 [Golvatinib (E7050)]
Resp: 2.14

Req: Need thermal shift delta Tm, item "C=CC(=O)Nc1ccc2ncnc(Nc3ccc(OCc4cccc(F)c4)c(Cl)c3)c2c1"
Resp: 2.87

Req: Need thermal shift delta Tm, item "Cc1c(C(=O)Nc2ccc(Oc3ccnc4[nH]cc(-c5ccccc5)c34)c(F)c2)c(=O)n(-c2ccc(F)cc2)n1C"
Resp: 1.44

Next:
Req: Need thermal shift delta Tm, item CC1(C)C=Cc2c(ccc3c2OC[C@@H](c2ccc(O)cc2O)C3)O1 [Glabridin]
Resp: 0.51

Req: Need thermal shift delta Tm, item "O=C1NC(=O)/C(=C/c2ccc3c(c2)OC(F)(F)O3)S1"
Resp: 0.93

Req: Need thermal shift delta Tm, item CC(C)n1nc(-c2cc3cc(O)ccc3[nH]2)c2c(N)ncnc21 [Torkinib (PP242)]
Resp: 0.57

Req: Need thermal shift delta Tm, item "COc1cc(C(=O)N2CCC(N3CCN(C)CC3)CC2)ccc1Nc1ncc2c(n1)N(C)c1ccccc1C(=O)N2C"
Resp: 0.35

Req: Need thermal shift delta Tm, item Clc1ccc(Nc2nnc(Cc3ccncc3)c3ccccc23)cc1 [Vatalanib (PTK787) 2HCl]
Resp: 0.47

Req: Need thermal shift delta Tm, item "CNS(=O)(=O)Nc1nccc(Cc2c(C)c3ccc(Oc4ncccn4)cc3oc2=O)c1F"
Resp: 1.23

Req: Need thermal shift delta Tm, item "Cc1cc(C(=O)NOCCO)c(Nc2ccc(I)cc2F)n(C)c1=O"
Resp: 0.08

Req: Need thermal shift delta Tm, item CC1Oc2cc(cnc2N)-c2c(nn(C)c2C#N)CN(C)C(=O)c2ccc(F)cc21 (stereo not drawn)
Resp: 0.31

###

# System: LOC_OS06G16330-cb003
# Sequence (as listed by the source): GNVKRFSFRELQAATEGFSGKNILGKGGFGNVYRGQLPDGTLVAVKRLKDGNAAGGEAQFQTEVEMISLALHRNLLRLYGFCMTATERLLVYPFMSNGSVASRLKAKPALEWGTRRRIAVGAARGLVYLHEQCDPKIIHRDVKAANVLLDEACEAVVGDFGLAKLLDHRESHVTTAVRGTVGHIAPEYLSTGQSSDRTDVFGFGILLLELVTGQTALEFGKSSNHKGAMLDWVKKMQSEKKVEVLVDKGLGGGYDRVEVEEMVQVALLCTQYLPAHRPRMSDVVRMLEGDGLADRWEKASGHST
# assayMethodText: thermal shift delta Tm vs DMSO control; higher = stronger stabilization (binding)
# conditionSet: 12.5 µM; protein concentration 2 µM
thermal shift delta Tm values by entry
Please don't drop the unit; write it after the number.

Take a look at these entries with their results.
Req: Need thermal shift delta Tm, item "Cc1ccc(Nc2cc(N[C@@H]3CCCC[C@@H]3N)nnc2C(N)=O)nc1C"
Resp: 4.95 °C

Req: Need thermal shift delta Tm, item "O=C(c1cccc(Cl)c1F)N1CCN(Cc2cccc(Nc3nccs3)n2)CC1"
Resp: 10.8 °C

Req: Need thermal shift delta Tm, item "COc1cc2nccc(Oc3ccc(NC(=O)C4(C(=O)Nc5ccc(F)cc5)CC4)cc3)c2cc1OC"
Resp: 5.17 °C

Req: Need thermal shift delta Tm, item "CC(C)(C#N)c1ccc(N2C(=O)OCc3cnc4ccc(-c5cnc6ccccc6c5)cc4c32)cc1"
Resp: 0.44 °C

Req: Need thermal shift delta Tm, item "CC(C)NC(=O)COc1cccc(-c2nc(Nc3ccc4[nH]ncc4c3)c3ccccc3n2)c1"
Resp: 0.58 °C

Next:
Req: Need thermal shift delta Tm, item CN1CCN(c2ccc3nc(-c4c(N)c5c(F)cccc5[nH]c4=O)[nH]c3c2)CC1 [Dovitinib (TKI258) Lactate]
Resp: 8.12 °C

Req: Need thermal shift delta Tm, item Cc1cc(C(=O)Nc2nc3cccc(Cl)c3n2[C@@H]2CCCCN(C(=O)/C=C/CN(C)C)C2)ccn1 [Nazartinib (EGF816, NVS-816)]
Resp: 0.74 °C

Req: Need thermal shift delta Tm, item COc1cc2c(c(OC)c1OC)-c1c(cc3c(c1OC)OCO3)CC(C)C(C)C2 (centres undefined) [Schisandrin B (Sch B)]
Resp: -0.39 °C

Req: Need thermal shift delta Tm, item "Cc1ccc2nc(NCCN)c3ncc(C)n3c2c1"
Resp: 0.49 °C
